Taken from ChEMBL document CHEMBL1148356.

experiment: Oral bioavailability in rat; type: ADME, organism-based; conditions: in vivo
experimental endpoint: bioavailability (%)
Give just the numeric value; % need not be written.

Cc1cc(-c2nnc3c4ccccc4c(OCc4ccccn4)nn23)no1 = 41

Field: next compound
(Q) Param item = Cc1cccc(COc2nn3c(-c4cc(C)on4)nnc3c3c2C2CCC3CC2)n1 ; retrieve measured bioavailability.
(A) 3

###

Molecular target: GABA-A receptor; alpha-2/beta-3/gamma-2 (Homo sapiens, UniProt P18507+P28472+P47869)
Sequence (P18507 whole entry): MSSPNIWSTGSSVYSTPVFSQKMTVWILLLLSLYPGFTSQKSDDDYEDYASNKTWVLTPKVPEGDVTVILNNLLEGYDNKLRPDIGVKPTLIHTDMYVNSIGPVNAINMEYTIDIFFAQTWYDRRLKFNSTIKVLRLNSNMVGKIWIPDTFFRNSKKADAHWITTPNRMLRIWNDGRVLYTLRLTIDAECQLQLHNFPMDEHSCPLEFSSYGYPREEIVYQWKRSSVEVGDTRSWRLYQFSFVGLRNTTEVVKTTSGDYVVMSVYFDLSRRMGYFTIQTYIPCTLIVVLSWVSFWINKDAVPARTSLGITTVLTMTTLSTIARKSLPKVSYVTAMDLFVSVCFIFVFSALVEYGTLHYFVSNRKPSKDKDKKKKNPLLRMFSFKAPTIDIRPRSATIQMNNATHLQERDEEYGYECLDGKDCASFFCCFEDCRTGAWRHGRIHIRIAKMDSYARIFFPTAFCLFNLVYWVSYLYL
Sequence (P28472 whole entry): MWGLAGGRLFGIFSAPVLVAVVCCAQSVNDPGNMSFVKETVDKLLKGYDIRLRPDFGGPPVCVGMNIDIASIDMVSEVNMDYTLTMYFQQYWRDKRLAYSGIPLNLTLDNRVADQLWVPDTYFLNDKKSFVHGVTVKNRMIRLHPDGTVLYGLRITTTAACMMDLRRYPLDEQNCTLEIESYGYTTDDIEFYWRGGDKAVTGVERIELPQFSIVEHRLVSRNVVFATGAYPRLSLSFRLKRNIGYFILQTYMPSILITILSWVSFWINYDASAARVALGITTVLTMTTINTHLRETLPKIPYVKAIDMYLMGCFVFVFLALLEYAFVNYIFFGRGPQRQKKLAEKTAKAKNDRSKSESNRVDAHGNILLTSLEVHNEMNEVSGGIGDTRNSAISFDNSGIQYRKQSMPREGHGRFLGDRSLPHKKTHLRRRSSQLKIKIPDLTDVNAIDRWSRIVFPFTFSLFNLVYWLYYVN
Sequence (P47869 whole entry): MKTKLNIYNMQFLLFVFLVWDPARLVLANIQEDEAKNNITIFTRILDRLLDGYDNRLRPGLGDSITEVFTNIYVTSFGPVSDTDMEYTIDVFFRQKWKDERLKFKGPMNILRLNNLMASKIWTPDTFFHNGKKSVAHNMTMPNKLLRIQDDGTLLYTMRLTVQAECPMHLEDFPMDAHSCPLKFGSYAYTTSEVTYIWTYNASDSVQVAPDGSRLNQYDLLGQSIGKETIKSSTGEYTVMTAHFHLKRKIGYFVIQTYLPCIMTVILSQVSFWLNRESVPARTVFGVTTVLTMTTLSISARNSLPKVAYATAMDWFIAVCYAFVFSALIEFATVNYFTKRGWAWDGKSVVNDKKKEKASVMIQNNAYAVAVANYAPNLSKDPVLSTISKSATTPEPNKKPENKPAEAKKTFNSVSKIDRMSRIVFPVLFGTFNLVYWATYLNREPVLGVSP
Assay: Binding affinity towards human gamma-aminobutyric-acid A receptor alpha-2-beta-3-gamma-2 using [3H]Ro-151788 expressed in L(tk-) cells
Below, each entry is listed with its recorded Ki.

Cc1cc(-c2nnc3c4ccccc4c(OCc4ccccn4)nn23)no1 = 2.7 nM
Cc1cc(-c2nnc3c4c(c(OCc5ccccn5)nn23)C2CCC4C2)no1 (configuration not stated) = 19.7 nM
Cc1cccc(COc2nn3c(-c4csc(C)n4)nnc3c3c2C2CCC3CC2)n1 = > 1000 nM
Cc1cccc(COc2nn3c(-c4ncn(C)n4)nnc3c3c2C2CCC3CC2)n1 = > 1000 nM
Cc1cccc(COc2nn3c(-c4ncnn4C)nnc3c3c2C2CCC3CC2)n1 = > 1000 nM

(Q) Param item = Cc1cccc(COc2nn3c(-c4nc(C(C)C)no4)nnc3c3c2C2CCC3CC2)n1 ; retrieve measured Ki.
(A) 68.4 nM

(Q) Param item = Cc1noc(-c2nnc3c4c(c(OCc5ncc[nH]5)nn23)C2CCC4CC2)n1 ; retrieve measured Ki.
(A) 35.9 nM

(Q) Param item = Cc1cccc(COc2nn3c(-c4cccs4)nnc3c3c2C2CCC3CC2)n1 ; retrieve measured Ki.
(A) 66 nM

###

target: GABA-A receptor; alpha-6/beta-3/gamma-2 (Homo sapiens, UniProt P18507+P28472+Q16445); test: Inhibition of [3H]Ro-151788 binding to human alpha-6-beta-3-gamma-2 GABA-A receptor expressed in L(tk-) cells
experimental endpoint: Ki (µM)
Give just the numeric value; µM need not be written.

(Q) Param item = Cc1cc(-c2nnc3c4ccccc4c(OCc4ccccn4)nn23)no1 ; retrieve measured Ki.
(A) 4.41

###

target: GABA-A receptor; alpha-3/beta-3/gamma-2 (Homo sapiens, UniProt P18507+P28472+P34903); test: Binding affinity towards human gamma-aminobutyric-acid A receptor alpha-3-beta-3-gamma-2 using [3H]Ro-151788 expressed in L(tk-) cells; assay type: cell-based
Below, each entry is listed with its recorded Ki.
Give just the numeric value; nM need not be written.

Look over these answered cases.
Cc1cccc(COc2nn3c(-c4nc(C)no4)nnc3c3c2C2CCC3CC2)n1 = 11
Cc1cccc(COc2nn3c(-c4nc(-c5ccncc5)no4)nnc3c3c2C2CCC3CC2)n1 = 26.4
Cc1cccc(COc2nn3c(-c4ccco4)nnc3c3c2C2CCC3CC2)n1 = 116
Cc1noc(-c2nnc3c4c(c(OCc5ncc[nH]5)nn23)C2CCC4CC2)n1 = 19.4

Field: next compound
(Q) Param item = Cc1cccc(COc2nn3c(-c4cnccn4)nnc3c3c2C2CCC3CC2)n1 ; retrieve measured Ki.
(A) 10.6

###

Target: GABA-A receptor; alpha-5/beta-3/gamma-2 (Homo sapiens, UniProt P18507+P28472+P31644)
Sequence (P18507 whole entry): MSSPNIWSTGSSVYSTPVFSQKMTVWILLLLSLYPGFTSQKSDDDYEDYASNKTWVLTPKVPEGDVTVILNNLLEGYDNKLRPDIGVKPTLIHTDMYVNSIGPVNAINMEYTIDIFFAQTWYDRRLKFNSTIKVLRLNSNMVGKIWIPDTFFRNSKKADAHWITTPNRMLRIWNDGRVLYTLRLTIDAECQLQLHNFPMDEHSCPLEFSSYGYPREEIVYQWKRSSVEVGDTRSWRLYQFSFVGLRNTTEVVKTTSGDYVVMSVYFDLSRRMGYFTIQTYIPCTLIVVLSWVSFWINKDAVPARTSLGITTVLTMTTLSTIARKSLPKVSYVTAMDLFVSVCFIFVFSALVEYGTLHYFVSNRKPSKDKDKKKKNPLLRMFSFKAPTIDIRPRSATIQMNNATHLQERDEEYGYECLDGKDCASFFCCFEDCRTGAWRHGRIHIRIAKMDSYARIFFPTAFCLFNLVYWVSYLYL
Sequence (P28472 whole entry): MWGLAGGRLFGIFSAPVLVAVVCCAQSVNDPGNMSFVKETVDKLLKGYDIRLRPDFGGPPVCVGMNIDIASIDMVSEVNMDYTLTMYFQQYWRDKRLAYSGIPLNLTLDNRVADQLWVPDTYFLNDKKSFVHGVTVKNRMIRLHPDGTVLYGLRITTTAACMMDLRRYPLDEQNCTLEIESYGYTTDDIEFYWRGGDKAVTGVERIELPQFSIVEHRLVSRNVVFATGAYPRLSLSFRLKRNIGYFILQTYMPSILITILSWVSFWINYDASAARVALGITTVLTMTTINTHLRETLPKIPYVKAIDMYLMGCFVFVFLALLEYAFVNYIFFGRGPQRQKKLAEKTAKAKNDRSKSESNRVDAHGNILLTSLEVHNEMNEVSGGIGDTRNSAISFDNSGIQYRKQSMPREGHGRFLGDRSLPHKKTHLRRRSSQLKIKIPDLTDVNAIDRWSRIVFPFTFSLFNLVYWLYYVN
Sequence (P31644 whole entry): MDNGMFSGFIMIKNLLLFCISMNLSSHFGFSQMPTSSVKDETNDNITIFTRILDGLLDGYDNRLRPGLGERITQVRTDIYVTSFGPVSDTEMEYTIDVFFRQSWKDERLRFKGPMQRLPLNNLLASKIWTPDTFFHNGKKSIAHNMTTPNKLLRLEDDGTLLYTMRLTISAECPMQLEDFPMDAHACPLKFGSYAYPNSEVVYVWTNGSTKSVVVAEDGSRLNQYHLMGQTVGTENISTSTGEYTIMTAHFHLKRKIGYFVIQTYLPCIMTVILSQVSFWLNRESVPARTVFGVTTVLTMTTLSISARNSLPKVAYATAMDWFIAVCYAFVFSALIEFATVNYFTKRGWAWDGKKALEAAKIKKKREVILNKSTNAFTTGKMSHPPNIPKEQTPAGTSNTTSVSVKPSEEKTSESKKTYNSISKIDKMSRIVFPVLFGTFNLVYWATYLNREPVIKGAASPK
Assay: Binding affinity towards human alpha-5-beta-3-gamma-2 GABA-A receptor using [3H]Ro-151788 expressed in L(tk-) cells
Below, each entry is listed with its recorded Ki.
Give just the numeric value; nM need not be written.

Look over these answered cases.
Cc1cccc(COc2nn3c(-c4ncnn4C)nnc3c3c2C2CCC3CC2)n1 = 253
Cc1cccc(COc2nn3c(-c4ncn(C)n4)nnc3c3c2C2CCC3CC2)n1 = 214
Cc1cccc(COc2nn3c(-c4cccs4)nnc3c3c2C2CCC3CC2)n1 = 4
Cc1cccc(COc2nn3c(-c4cc(C)on4)nnc3c3c2C2CCC3C2)n1 (configuration not stated) = 8.9
Cc1cccc(COc2nn3c(-c4csc(C)n4)nnc3c3c2C2CCC3CC2)n1 = 58

(Q) Param item = Cc1cccc(COc2nn3c(-c4cnccn4)nnc3c3c2C2CCC3CC2)n1 ; retrieve measured Ki.
(A) 1.8

(Q) Param item = Cc1cccc(COc2nn3c(-c4coc(C)n4)nnc3c3c2C2CCC3CC2)n1 ; retrieve measured Ki.
(A) 6.8

(Q) Param item = Cc1cccc(COc2nn3c(-c4nc(-c5ccncc5)no4)nnc3c3c2C2CCC3CC2)n1 ; retrieve measured Ki.
(A) 2.1

(Q) Param item = Cc1cccc(COc2nn3c(-c4ccco4)nnc3c3c2C2CCC3CC2)n1 ; retrieve measured Ki.
(A) 13

(Q) Param item = CCc1noc(-c2nnc3c4c(c(OCc5cccc(C)n5)nn23)C2CCC4CC2)n1 ; retrieve measured Ki.
(A) 3.5

(Q) Param item = Cc1cccc(COc2nn3c(-c4nc(C)no4)nnc3c3c2C2CCC3CC2)n1 ; retrieve measured Ki.
(A) 1.4

(Q) Param item = Cc1cccc(COc2nn3c(-c4ccccn4)nnc3c3c2C2CCC3CC2)n1 ; retrieve measured Ki.
(A) 15.3

(Q) Param item = Cc1cc(-c2nnc3c4ccccc4c(OCc4ccccn4)nn23)no1 ; retrieve measured Ki.
(A) 0.8

(Q) Param item = Cc1noc(-c2nnc3c4c(c(OCc5ccc(C)c(C)n5)nn23)C2CCC4CC2)n1 ; retrieve measured Ki.
(A) 0.39

(Q) Param item = Cc1cccc(COc2nn3c(-c4nc(-c5cccnc5)no4)nnc3c3c2C2CCC3CC2)n1 ; retrieve measured Ki.
(A) 3.3

(Q) Param item = Cc1cccc(COc2nn3c(-c4nc(-c5ccccc5)no4)nnc3c3c2C2CCC3CC2)n1 ; retrieve measured Ki.
(A) 19.2

(Q) Param item = Cc1noc(-c2nnc3c4c(c(OCc5ccccc5Br)nn23)C2CCC4CC2)n1 ; retrieve measured Ki.
(A) 1

(Q) Param item = Cc1noc(-c2nnc3c4c(c(OCc5ccccn5)nn23)C2CCC4CC2)n1 ; retrieve measured Ki.
(A) 0.77

(Q) Param item = Cc1cccc(COc2nn3c(-c4ccccc4)nnc3c3c2C2CCC3CC2)n1 ; retrieve measured Ki.
(A) 3

(Q) Param item = Cc1cccc(COc2nn3c(-c4nc(C(C)C)no4)nnc3c3c2C2CCC3CC2)n1 ; retrieve measured Ki.
(A) 6.5

(Q) Param item = Cc1cccc(COc2nn3c(-c4ccccc4)nnc3c3ccccc23)n1 ; retrieve measured Ki.
(A) 1.3

(Q) Param item = Cc1noc(-c2nnc3c4c(c(OCc5ccccc5C#N)nn23)C2CCC4CC2)n1 ; retrieve measured Ki.
(A) 0.44

(Q) Param item = Cc1noc(-c2nnc3c4c(c(OCc5ncc[nH]5)nn23)C2CCC4CC2)n1 ; retrieve measured Ki.
(A) 3.8

(Q) Param item = Cc1nc(-c2nnc3c4c(c(OCc5cccc[n+]5[O-])nn23)C2CCC4CC2)[o+][n-]1 ; retrieve measured Ki.
(A) 3.9

(Q) Param item = Cc1noc(-c2nnc3c4c(c(OCc5cccnc5)nn23)C2CCC4CC2)n1 ; retrieve measured Ki.
(A) 0.93

(Q) Param item = Cc1cc(-c2nnc3c4c(c(OCc5ccccn5)nn23)C2CCC4C2)no1 (configuration not stated) ; retrieve measured Ki.
(A) 5.5
